Where these numbers come from: patent US20230257396A1

# MEASUREMENT TARGET: kinases (Homo sapiens, UniProt P00519, F317I)
# Construct: purchased Eurofins/DiscoveRx; host or cells: E. coli BL21-derived host (T7 phage display) for most kinases; HEK-293 for the rest
# Sequence (P00519 whole entry F317I): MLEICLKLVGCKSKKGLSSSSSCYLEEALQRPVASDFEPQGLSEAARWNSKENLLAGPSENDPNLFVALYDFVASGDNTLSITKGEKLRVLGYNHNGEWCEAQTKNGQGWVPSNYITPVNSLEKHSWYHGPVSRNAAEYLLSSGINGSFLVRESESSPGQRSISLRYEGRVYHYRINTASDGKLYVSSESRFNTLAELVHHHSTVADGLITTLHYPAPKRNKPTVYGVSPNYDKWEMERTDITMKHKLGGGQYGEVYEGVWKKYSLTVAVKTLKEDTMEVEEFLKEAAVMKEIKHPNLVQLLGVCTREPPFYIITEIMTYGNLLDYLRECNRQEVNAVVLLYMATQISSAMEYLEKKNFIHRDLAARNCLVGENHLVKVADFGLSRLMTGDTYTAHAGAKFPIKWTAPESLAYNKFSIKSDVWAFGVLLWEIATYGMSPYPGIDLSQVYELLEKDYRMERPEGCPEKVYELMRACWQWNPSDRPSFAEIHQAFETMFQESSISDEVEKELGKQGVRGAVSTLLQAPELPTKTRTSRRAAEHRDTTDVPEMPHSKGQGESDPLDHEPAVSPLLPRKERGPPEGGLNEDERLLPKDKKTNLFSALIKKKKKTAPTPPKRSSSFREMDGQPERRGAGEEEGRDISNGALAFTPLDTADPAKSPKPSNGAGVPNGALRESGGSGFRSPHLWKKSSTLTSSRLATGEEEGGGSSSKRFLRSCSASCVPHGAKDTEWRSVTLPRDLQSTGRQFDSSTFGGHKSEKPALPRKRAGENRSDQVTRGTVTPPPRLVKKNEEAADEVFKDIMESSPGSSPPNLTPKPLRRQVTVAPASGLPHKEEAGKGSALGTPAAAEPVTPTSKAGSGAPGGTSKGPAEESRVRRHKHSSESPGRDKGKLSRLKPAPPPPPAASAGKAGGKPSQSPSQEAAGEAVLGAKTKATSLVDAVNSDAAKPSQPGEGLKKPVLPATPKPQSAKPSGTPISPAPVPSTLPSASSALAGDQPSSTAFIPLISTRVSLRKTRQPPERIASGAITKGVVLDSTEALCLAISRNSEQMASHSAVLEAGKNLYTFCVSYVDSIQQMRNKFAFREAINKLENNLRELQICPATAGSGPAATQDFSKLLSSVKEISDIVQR
# METHOD SUMMARY: KINOMEscan kinase binding assay (Eurofins/DiscoveRx), % Ctrl
# EXPERIMENTAL PARAMETERS: target ABL1(F317I)-nonphosphorylated; 1 μM
PARAMETER MEASURED: % Ctrl, ABL1(F317I)-nonphosphorylated (% Ctrl)

Consider the following illustrative entries.
## Task Suppose we examine the molecule `CN1CCOCCOc2cc3c(cc2Cl)NC(=O)/C3=C\c2[nH]ccc2C1=O` ; what % Ctrl, ABL1(F317I)-nonphosphorylated value has been reported?
## Result 46

## Task Any idea what its % Ctrl, ABL1(F317I)-nonphosphorylated is? The molecule is `CN1CCSCCOc2cc3c(cc2Cl)NC(=O)/C3=C\c2[nH]ccc2C1=O`
## Result 20

## Task Sample `Cc1cc2c([nH]1)/C=C1\C(=O)Nc3ccc(cc31)-c1c(C)nn(C)c1COCCN(C)C2=O` — what was its % Ctrl, ABL1(F317I)-nonphosphorylated?
## Result 100

## Task // returns reported % Ctrl, ABL1(F317I)-nonphosphorylated for input `Cc1cc2c([nH]1)/C=C1\C(=O)Nc3ccc(cc31)-c1c(noc1C)CNCCN(C)C2=O`
## Result 72

## Task Recorded % Ctrl, ABL1(F317I)-nonphosphorylated of `Cc1cc2c([nH]1)/C=C1\C(=O)Nc3cc(Cl)c(cc31)OCCO[C@@H](C(=O)N1CCN(C)CC1)CN(C)C2=O` , please.
## Result 86

[a] Cc1cc2c([nH]1)/C=C1\C(=O)Nc3cnc(cc31)-c1cn[nH]c1CNCCN(C)C2=O
[b] Cc1nn(C)c2c1-c1ccc3c(c1)/C(=C/c1[nH]ccc1C(=O)N(C)CCCO2)C(=O)N3
## Task Exercise: compare a and b ; which one has the greater % Ctrl, ABL1(F317I)-nonphosphorylated? Please indicate the selected item by its label.
## Result b
